# Tested on: MRC-5
# ASSAY PROTOCOL: MTT cytotoxicity in noncancerous cells, 72 h
# Type: cell-based, human
# SETUP CONDITIONS: MRC-5, MTT
PROPERTY: IC50
Please don't drop the unit; write it after the number.

Would you please look over these solved cases?
molecule="CC(Oc1cc(-c2cnn(C3CCN(C(=O)[O][Pt]([OH])([Cl])[Cl])CC3)c2)cnc1N)c1c(Cl)ccc(F)c1Cl.N.N (stereo not shown) [compound 2, ctc-[Pt(NH3)2(crizotinib)(OH)Cl2]]" property=IC50 result="4200 nM"
molecule="C[C@@H](Oc1cc(-c2cnn(C3CCN(C(=O)[O][Pt]4([O]C(=O)CCCc5ccccc5)[O]C(=O)C(=O)[O]4)CC3)c2)cnc1N)c1c(Cl)ccc(F)c1Cl.N[C@@H]1CCCC[C@H]1N [compound 4, ctc-[Pt(DACH)(crizotinib)(PhB)(Ox)]]" property=IC50 result="3100 nM"
molecule="Cc1cc(Nc2ncc(Cl)c(Nc3ccccc3S(=O)(=O)C(C)C)n2)c(OC(C)C)cc1C1CCN(C(=O)[O][Pt]2([O]C(=O)CCCc3ccccc3)[O]C(=O)C(=O)[O]2)CC1.N[C@@H]1CCCC[C@H]1N [compound 8, ctc-[Pt(DACH)(ceritinib)(PhB)(Ox)]]" property=IC50 result="2300 nM"
molecule="CC(Oc1cc(-c2cnn(C3CCN(C(=O)[O][Pt]([Cl])([Cl])[O]C(=O)CCCc4ccccc4)CC3)c2)cnc1N)c1c(Cl)ccc(F)c1Cl.N.N (stereo not shown) [compound 3, ctc-[Pt(NH3)2(crizotinib)(PhB)Cl2]]" property=IC50 result="1500 nM"
molecule="Cc1cc(Nc2ncc(Cl)c(Nc3ccccc3S(=O)(=O)C(C)C)n2)c(OC(C)C)cc1C1CCN(C(=O)[O][Pt]([OH])([Cl])[Cl])CC1.N.N [compound 6, ctc-[Pt(NH3)2(ceritinib)(OH)Cl2]]" property=IC50 result="2600 nM"

In: Which IC50 reading was recorded for the molecule Cc1cc(Nc2ncc(Cl)c(Nc3ccccc3S(=O)(=O)C(C)C)n2)c(OC(C)C)cc1C1CCN(C(=O)[O][Pt]([Cl])([Cl])[O]C(=O)CCCc2ccccc2)CC1.N.N [compound 7, ctc-[Pt(NH3)2(ceritinib)(PhB)Cl2]] ?
Out: 1200 nM

In: Please give the result for N.N.[Cl][Pt][Cl] [cisPt, cisplatin, reference compound] too.
Out: 10000 nM

---

# Tested on: normal (noncancerous) cells MRC-5, IMR-90, hTERT-HPNE, MCF10A
# ASSAY PROTOCOL: MTT, noncancerous cell lines (average, selectivity index)
# Type: cell-based, human
# SETUP CONDITIONS: IC50(normal cells)/averageIC50(cancer cells)
# SI, selectivity index >= 3 gives 1, anything below gives 0

Please review the entries below; each comes with its answer.
compound="Cc1cc(Nc2ncc(Cl)c(Nc3ccccc3S(=O)(=O)C(C)C)n2)c(OC(C)C)cc1C1CCN(C(=O)[O][Pt]([OH])([Cl])[Cl])CC1.N.N [compound 6, ctc-[Pt(NH3)2(ceritinib)(OH)Cl2]]" assigned_class=1
compound="N.N.[Cl][Pt][Cl] [cisPt, cisplatin, reference compound]" assigned_class=0
compound="Cc1cc(Nc2ncc(Cl)c(Nc3ccccc3S(=O)(=O)C(C)C)n2)c(OC(C)C)cc1C1CCN(C(=O)[O][Pt]2([O]C(=O)CCCc3ccccc3)[O]C(=O)C(=O)[O]2)CC1.N[C@@H]1CCCC[C@H]1N [compound 8, ctc-[Pt(DACH)(ceritinib)(PhB)(Ox)]]" assigned_class=0

In: Could you please find out whether C[C@@H](Oc1cc(-c2cnn(C3CCN(C(=O)[O][Pt]4([O]C(=O)CCCc5ccccc5)[O]C(=O)C(=O)[O]4)CC3)c2)cnc1N)c1c(Cl)ccc(F)c1Cl.N[C@@H]1CCCC[C@H]1N [compound 4, ctc-[Pt(DACH)(crizotinib)(PhB)(Ox)]] has SI, selectivity index that meets 3 or exceeds it?
Out: 0

In: Please give the result for Cc1cc(Nc2ncc(Cl)c(Nc3ccccc3S(=O)(=O)C(C)C)n2)c(OC(C)C)cc1C1CCN(C(=O)[O][Pt]([Cl])([Cl])[O]C(=O)CCCc2ccccc2)CC1.N.N [compound 7, ctc-[Pt(NH3)2(ceritinib)(PhB)Cl2]] too.
Out: 1

In: Please give the result for CC(Oc1cc(-c2cnn(C3CCN(C(=O)[O][Pt]([OH])([Cl])[Cl])CC3)c2)cnc1N)c1c(Cl)ccc(F)c1Cl.N.N (stereo not shown) [compound 2, ctc-[Pt(NH3)2(crizotinib)(OH)Cl2]] too.
Out: 1

Entry source: paper PMC12670396
